# Target Of Assay: Human immunodeficiency virus type 1 protease (Human immunodeficiency virus 1, UniProt Q72874)
pIC50: −log10 of the molar value.
# label = class 1 if pIC50 >= 7 else class 0

Please review the entries below; each comes with its answer.
{"Compound": "CC(C)[C@@H]1[C@H](OC(=O)N[C@@H](Cc2ccccc2)[C@H](O)CN2C[C@H]3CCC[C@H]3C[C@H]2C(=O)NC(C)(C)C)CCS1(=O)=O", "Assigned Category": "class 1"}
{"Compound": "CC(C)(C)NC(=O)[C@@H]1C[C@@H]2CCCC[C@@H]2CN1C[C@@H](O)[C@H](Cc1ccccc1)NC(=O)O[C@@H]1CCS(=O)(=O)[C@@H]1C1CCCC1", "Assigned Category": "class 1"}
{"Compound": "C[C@H]1[C@@H](OC(=O)N[C@@H](Cc2ccccc2)[C@H](O)CN2C[C@H]3CCC[C@H]3C[C@H]2C(=O)NC(C)(C)C)CCS1(=O)=O", "Assigned Category": "class 1"}

Then there is this compound:
Quick check, pIC50 >= 7? `CC(C)(C)NC(=O)[C@@H]1C[C@@H]2CCCC[C@@H]2CN1C[C@@H](O)[C@H](Cc1ccccc1)NC(=O)O[C@H]1CCCS(=O)(=O)C1`
class 0
